- Experimental Details: Two-photon cross section and action spectra
- Format: physicochemical
- Test Conditions: MOPS buffer pH 7.2, presence of Zn2+; 780 nm
The compounds listed here are annotated with their δ, peak two-photon cross section.
In your response, put the unit directly after the numeric value.

- Smiles Notation: "Nc1ccc(NCCN(Cc2ccccn2)Cc2ccccn2)cc1"
  Endpoint Name: "δ, peak two-photon cross section"
  Reported Measurement: "210 GM"

Next, consider the following compound.
Lookup: Output δ, peak two-photon cross section of COc1cc(NC(=O)CN(C)c2ccc3cc(C(C)=O)ccc3c2)ccc1NCCN(Cc1ccccn1)Cc1ccccn1
Found: 140 GM

====

- Experimental Details: Measurement of water solubility
- Format: physicochemical
- Test Conditions: kinetic from dmso stock, H2O, 0.2% DMSO, maximum concentration in the linear region of fluorescence intensity vs probe concentration
Endpoint Name: solubility (µM)
Give your result in µM as a bare value.

- Smiles Notation: "COc1cc(NC(=O)CN(C)c2ccc3cc(C(C)=O)ccc3c2)ccc1NCCN(Cc1ccccn1)Cc1ccccn1"
  Reported Measurement: 3

Lookup: Read off the recorded solubility for Nc1ccc(NCCN(Cc2ccccn2)Cc2ccccn2)cc1
Found: 3
